- Test system: LAMP1-positive vesicles
- Format: cell-based, human

# Molecule, Effect on LAMP1
records = [
    ("CC(C)(C)c1nc2ccccc2c2nnc(SCC(=O)Nc3nccs3)n12 [MLS000555232]", "−"),
    ("Cc1nn2c(NCCCN(C)C)c3c(nc2c1-c1ccccc1)CCCC3 [MLS000762907]", 0),
    ("CC(C)N1CCN(C(=O)c2ccc(OC3CCN(CCc4ccccc4)CC3)cc2)CC1 [MLS001101371]", "−"),
    ("CC(C)(CS(=O)(=O)[O-])NC(=O)CC[N+](C)(C)CCO [MLS000554255]", "−"),
]

###

- System: EBOV
- Assay overview: organism not typed
- Assay type: cell-based, Zaire Ebolavirus (Mayinga strain)
- Protocol conditions: read-out: EBOV HeLa IC50
Assign pIC50 to each entry below.
Give bare numbers, as −log10 of the molar value.

# Smiles data, System, pIC50
data = [
    ("Cc1nn2c(NCCCN(C)C)c3c(nc2c1-c1ccccc1)CCCC3", "EBOV", 5.49),
    ("CC(C)(CS(=O)(=O)[O-])NC(=O)CC[N+](C)(C)CCO", "EBOV", 5.17),
    ("N#Cc1c(NCCN)nc(-c2ccccc2)c2c1CCCC2", "EBOV", 4.61),
    ("CC(C)(C)c1nc2ccccc2c2nnc(SCC(=O)Nc3nccs3)n12", "EBOV", 5.77),
    ("CC(C)N1CCN(C(=O)c2ccc(OC3CCN(CCc4ccccc4)CC3)cc2)CC1", "EBOV", 4.89),
]

The following compounds each have a reported value; give each one's pIC50.
1. Cc1cc(N2CCN(C)CC2)nc2ccc(NC(=S)NCCCN3CCc4ccccc4C3)cc12
2. C=C(c1ccc(O)cc1)c1ccc(O)cc1

Outgoing:
1: 5.80; 2: 4.59

###

- Test system: MARV
- Assay overview: microbe, parasite or virus in culture
- Type: cell-based, Marburgvirus (Musoke strain)
- Protocol conditions: read-out: IC-50 (MARV)
Measurement kind: IC50 (µM)
Give bare numbers, in µM.

Some entries whose results are on file:
# Molecule, Measurement kind, Unit annotation, Reported measurement
measured = [
    ("COc1ccccc1CCN1CCCC(CN(C)CC(C)(C)CO)C1 (stereo not drawn)", "IC50", "µM", 26.1),
    ("Fc1ccc2c(c1)Sc1ccc(Cl)cc1CC2N1CCN(CCC2OCCO2)CC1 (stereo not drawn)", "IC50", "µM", 25.4),
    ("Cc1cc(Cl)cc(C)c1OCCn1ccnc1", "IC50", "µM", 2.06),
    ("CCOc1cc(CNCCc2c[nH]c3ccccc23)cc(Cl)c1OC.Cl", "IC50", "µM", 25.3),
    ("O=C(C#Cc1ccccc1)c1ccco1", "IC50", "µM", 12.2),
    ("COc1ccc2c(c1)CC(N1CCN(C)CC1)c1cc(OC)ccc1S2.O=C(O)/C=C\\C(=O)O (stereo not drawn)", "IC50", "µM", 12.5),
    ("Cc1cc(NC(=O)CCN2CCN(C/C=C/c3ccccc3)CC2)ccc1Br.Cl", "IC50", "µM", 26.4),
    ("CC(C)(C)c1nc2ccccc2c2nnc(SCC(=O)Nc3nccs3)n12", "IC50", "µM", 6.26),
]

Incoming: Request body: readout IC50, system MARV, query "CC(C)N1CCN(C(=O)c2ccc(OC3CCN(CCc4ccccc4)CC3)cc2)CC1" . Return the value.
Outgoing: 13

###

Assign EBOV (curve class) to each entry below.
- Test system: EBOV
- Assay overview: organism not typed
- Assay type: cell-based, Zaire Ebolavirus (Mayinga strain)
One number for each entry.

# Smiles data, EBOV (curve class)
measured = [
    ("CC(C)(C)c1nc2ccccc2c2nnc(SCC(=O)Nc3nccs3)n12", 1.6),
    ("O=[N+]([O-])c1cc(S(=O)(=O)NCCN2CCOCC2)ccc1Sc1nnnn1-c1ccccc1", 1.6),
    ("Cc1nn2c(NCCCN(C)C)c3c(nc2c1-c1ccccc1)CCCC3", 1.3),
]

The following compounds each have a reported value; give each one's EBOV (curve class).
1. N#Cc1c(NCCN)nc(-c2ccccc2)c2c1CCCC2
2. Cc1cc(-c2nn(-c3ccccc3F)cc2CN2CCN(c3ccncc3)CC2)c(C)s1
3. CC(C)N1CCN(C(=O)c2ccc(OC3CCN(CCc4ccccc4)CC3)cc2)CC1
4. CC(C)(CS(=O)(=O)[O-])NC(=O)CC[N+](C)(C)CCO

Outgoing:
1: 1.6; 2: 1.3; 3: 1.3; 4: 1.5

Incoming: # input compound: "C=C(c1ccc(O)cc1)c1ccc(O)cc1" ; wanted: its EBOV (curve class)
Outgoing: 1.3

###

- Test system: EBOV
- Assay overview: organism not typed
- Format: cell-based, Zaire Ebolavirus (Mayinga strain)
Measurement kind: Curve Class (EBOV)
Give bare numbers.

Some entries whose results are on file:
# Compound, Curve Class (EBOV)
rows = [
    ("COc1ccccc1C(=O)O/N=C(\\N)c1ccccn1", 1.4),
    ("CC(C)(C)c1cc(/C=N/O)cc(C(C)(C)C)c1O", 1.4),
    ("CN(C)c1cc(NC(=O)CN2CCCC2)c2ccccc2n1.O=C(O)C(=O)O", 1.2),
    ("O=[N+]([O-])c1cc(S(=O)(=O)NCCN2CCOCC2)ccc1Sc1nnnn1-c1ccccc1", 1.6),
]

The following compounds each have a reported value; give each one's Curve Class (EBOV).
1. O=C(COC(=O)/C=C/c1cccs1)Nc1nc(-c2ccccc2)cs1
2. O=C1COc2ccc(C(=O)CCl)cc2N1
3. COc1ccc(C(CNC(=O)c2oc3ccc(OC)cc3c2C)N2CCCC2)cc1 (stereo not drawn)
4. CCN(CC)CCNC1=NCCn2c1cc1cc(OC)ccc12
5. Oc1ccc(Nc2ccnc3cc(Cl)ccc23)cc1

Outgoing:
1. 1.4
2. 4
3. 4
4. 1.6
5. 4

###

- Test system: MARV
- Assay overview: microbe, parasite or virus in culture
- Assay type: cell-based, Marburgvirus (Musoke strain)
- Protocol conditions: read-out: IC-50 (MARV)
Measurement kind: pIC50
Numbers only, as −log10 of the molar value.

Some entries whose results are on file:
# Compound, Measurement kind, Reported measurement
records = [
    ("Cc1ccc(C(=O)N/C(=C/c2ccc(-c3ccc([N+](=O)[O-])cc3)o2)C(=O)NCCCN(C)C)cc1 [MLS001180408]", "pIC50", 4.90),
    ("C=C(c1ccc(O)cc1)c1ccc(O)cc1 [MLS000078751]", "pIC50", 5.21),
]

Read the next record carefully.
Incoming: Request body: readout pIC50, system MARV, query Cc1ccc(NC(=O)ON=C2CCCC2)cc1 [MLS000569139] . Return the value.
Outgoing: 4.90

###

Assign Uninfected cell number to each entry below.
- Test system: EBOV
- Type: cell-based, Zaire Ebolavirus (Mayinga strain)
One number for each entry.

Some entries whose results are on file:
# Smiles data, Uninfected cell number
records = [
    ("O=[N+]([O-])c1cc(S(=O)(=O)NCCN2CCOCC2)ccc1Sc1nnnn1-c1ccccc1", 0),
    ("Cc1cc(-c2nn(-c3ccccc3F)cc2CN2CCN(c3ccncc3)CC2)c(C)s1", 0),
]

Read the next record carefully.
Incoming: Request body: readout Uninfected cell number, system EBOV, query "CC(C)N1CCN(C(=O)c2ccc(OC3CCN(CCc4ccccc4)CC3)cc2)CC1" . Return the value.
Outgoing: 0

###

- System: EBOV
- Assay overview: organism not typed
- Type: cell-based, Zaire Ebolavirus (Mayinga strain)
- Protocol conditions: read-out: IC-50 (EBOV)
Measurement kind: pIC50
Numbers only, as −log10 of the molar value.

# Compound, System, pIC50
measured = [
    ("CCN(CC)CCNC1=NCCn2c1cc1cc(OC)ccc12", "EBOV", 5.53),
    ("Fc1ccc(C(c2nnnn2Cc2cccs2)N2CCN(C3CCCCC3)CC2)cc1 (stereo not drawn)", "EBOV", 5.19),
    ("COc1ccc2c(c1)CC(N1CCN(C)CC1)c1cc(OC)ccc1S2.O=C(O)/C=C\\C(=O)O (stereo not drawn)", "EBOV", 5.19),
    ("CN(C)CCCN(C(=O)c1ccc2ccccc2c1)c1nc2cc3c(cc2s1)OCO3.Cl", "EBOV", 5.81),
]

The following compounds each have a reported value; give each one's pIC50.
1. CC(C)(C)c1nc2ccccc2c2nnc(SCC(=O)Nc3nccs3)n12
2. Cc1cc(OCCCCCNCCO)cc(C)c1Cl
3. CCOc1cc(CNCCc2c[nH]c3ccccc23)cc(Cl)c1OC.Cl
4. COc1ccc(C(C(=O)NC2CCCCC2)N(C(=O)CCl)c2ccc(C)cc2)cc1 (stereo not drawn)
5. Cc1cc(Nc2ccc(Cl)cc2)nc(N2CCOCC2)n1

Outgoing:
5.76
6.23
5.56
4.91
5.82

The following compounds each have a reported value; give each one's pIC50.
1. CCCN1CCN(CCCNC(=O)c2cc3c(=O)[nH]c4ccc(C)cc4c3s2)CC1
2. COc1ccc(NC(=O)C2C3C=CC4(O3)C2C(=O)N(CCN2CCCCC2)C4C(=O)NC2CCCC(C)C2C)cc1 (stereo not drawn)
3. CCOC(=O)c1c(C)n(CC(O)CN(C)C)c2cc(Br)c(OC)cc12.Cl (stereo not drawn)
4. N#Cc1c(NCCN)nc(-c2ccccc2)c2c1CCCC2
5. CCN(CC)CCNC(=O)c1ccc(NC(=O)c2ccccc2-c2ccc(C(F)(F)F)cc2)cc1
6. CCN1CCCC1CNCC(O)COc1ccc(C(C)(C)C)cc1C.O=C(O)C(=O)O (stereo not drawn)
7. Cc1cc(Cl)cc(C)c1OCCn1ccnc1
8. COc1ccccc1CCN1CCCC(CN(C)CC(C)(C)CO)C1 (stereo not drawn)

Outgoing:
[4.60, 4.90, 5.19, 4.61, 5.19, 4.91, 5.21, 5.14]

Incoming: # input compound: "COc1ccc(Nc2cc(C)nc3ccc(OC)cc23)cc1" ; wanted: its pIC50
Outgoing: 5.47
